assayed.target: T1, human MSLN-R3-his protein (human, UniProt Q13421 487-598)
T1 construct: it is put last here; also called human MSLN-R3 protein; hMSLN-R3-his; not shown: His tag
T1 sequence (Q13421 495-606): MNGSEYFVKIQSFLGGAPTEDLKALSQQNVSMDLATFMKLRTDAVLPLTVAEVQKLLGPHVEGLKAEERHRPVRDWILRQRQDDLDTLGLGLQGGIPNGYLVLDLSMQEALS
method: ELISA on coated antigen, antibody 2 nM
assay.endpoint: OD450 (OD)
Numbers only, in OD.

Answered examples (2):
[
  {
    "binder": "S009-F7.44.20 (antibody, human IgG1, kappa, V domains shown, Human-murine chimeric antibody, human IgG1 heavy and kappa light constant regions) VH: EVQLQQSGPELVKPGASVKIPCKASGYTFTDYNMDWVKQSHGKSLEWIGDINPSTGGTIYNQKFNGKATLTEDKSASTVYMEFRSLTSDDTAVYYCARRRIGTGYFDVWGTGTTVTVSS VL: QIVLTQSPALMSASPGEKVTLTCSASSSVISSYLSWYQQKPGSSPKLLIYRTSNLASGVPARFSGSGSGTSYSLTISSMEAEDAASYFCHQWSSFPYTFGGGTKLEIKR",
    "unit": "OD",
    "measured.number": 2.46
  },
  {
    "binder": "S009-F7.65.13 (antibody, human IgG1, kappa, V domains shown, Human-murine chimeric antibody, human IgG1 heavy and kappa light constant regions) VH: EVQLQQSGPELVKPGTSVKILCKASGDTFTAYNMDWVKQRHGQSLEWIGDINPNTDSTIYNQKFEGKAILTVDKSSSTAYMELRSLTSEDTAVYYCARRKLGRGYFDYWGQGTTLTVSS VL: QIVLTQSPAIMSASPGEKVTMTCSVNLSVRYIYWYQQKPGSSPRLLIHDTSNLASGVPVRFSGSGSGTSYSLTISRMEAEDAATYYCQQWSSFPYTFGGGTKLEIKR",
    "unit": "OD",
    "measured.number": 2.39
  }
]

Entry S009-F7.66.12 (antibody, human IgG1, kappa, V domains shown, Human-murine chimeric antibody, human IgG1 heavy and kappa light constant regions) VH: QIPLQQSGPELVKPGASVRISCKASDYAFSSSWMNWVKQRPEKGLEWIGRIFVESGNTHYNDKFNGKATLTADKSSRTAYIQLSSLTSEDSAVYFCTRENIFYHGHSSWFAYWGQGTLVTVSA VL: DIVLTQSPASLVVSLGQRATISCRAGESVDDFGISYVHWYQQKPGQPPKLLIYRAANLESGIPARFSGSGSRTDFTLTINPVETDDVAIYYCQQNNKDPFTFGSGTKLEIKR — recorded OD450 = 2.25
